The reported numbers originate from the DeepSol protein solubility set.

# run.description: soluble on expression in E. coli; label from the status in PepcDB or PDB records
metric.name: soluble on expression in E. coli

monomer.sequence | metric.name | reported.measurement
KKIIHELLDDILFFETAPTIHKVILHGKNRQVEFYGKLKSIEKMLDESFYRCHRSYIVNKKNIHELDTTKGVVKMSNGENCYASSKLIKSLSL | soluble on expression in E. coli | not soluble
MRRGNRRTPGPVCRQAFRAEFTAIHAPVVFFMSCNRQIVRSLRQQIPSFECVPGCHDCCGPVTTSPEEMSRLPRKTAAEQEAAMDELNCVHLGPNGCTVYDERPLICRLFGTTPSLPCPNGRRPVEMIHPRVEKQIHDYMASTRQVLVLEHHHHHH | soluble on expression in E. coli | not soluble
MSETVYTAKDYKSGQPRWCPGCGDHAFLNSLHKAMAELGVAPHNIAVISGIGCSSRLPYYVNTYGFHTIHGRAAAVATGAKVANPDLTIWQISGDGDGLAIGGNHFIHAVRRNIDLNMILLNNRIYGLTKGQYSPTSDRGFVSKSSPYGTVEDPFHPAELCFGARGRFFARCVAVDGPASVEVLKAAANHKGASVVEVLQNCVIFNDGTHESVATKEGRSKNAIYLEHGKPMLFGENKEFGLMQEGFGLKVVKLGENGVTEKDILIHNAHSMDNTLQLKLALMEGPDFPIALGVIRDVEAPTYNDAVAEQIDEVKAKKKYHNFQELLMTNETWEVK | soluble on expression in E. coli | not soluble
MGSDKIHHHHHHMTALTPAAFHSDRNRHDAHVARIREVRPGLRIHSDDATDEFDAVMSGQCSPGLHLVLLLEGALDVSYGSRRVVLTTDGRRTGRADRDAVRPAVRMQSFLLNAVEPDTFRRRLSKGGYARRLSLAMSGEWLGHLQAASRGVLPEQLGTMLSAHLAIRFWQPTPRATALAEQIVRPPAYQPMLQAIYLESRVLELLAEAFTPLETDAAQAADASLGSRDYRRMAELRAFLASDAAQALSIDDIARHAGMSANAMQRQFRAAYGTTVFDFVREHHLQRARLALERDAVSVKQAAALAGYTSAANFATAYKRRFGVTPTLARRSDKR | soluble on expression in E. coli | not soluble
AGSNGAQEKKYIVGFKQTMSTMSAAKKKDVISEKGGKVQKQFKYVDAASATLNEKAVKELKKDPSVAYVEEDHVAHAY | soluble on expression in E. coli | soluble
MGHHHHHHSHMATASPSVFLLMVNGQVESAQFPEYDDLYCKYCFVYGQDWAPTAGLEEGISQITSKSQDVRQALVWNFPIDVTFKSTNPYGWPQIVLSVYGPDVFGNDVVRGYGAVHVPFSPGRHKRTIPMFVPESTSKLQKFTSLCLVASSDLQAAPPTEDK | soluble on expression in E. coli | not soluble

Attention now shifts to the item below.
Asked: Consider the sequence "MTNWLIAYQGEPGAYSEIAALRFGEPLPCESFDDVFSAVTEQKADYAVIPIENSLGGSIHQNYDLLLRRPVVILAETFVKVEHCLLGLPGASVETATKAMSHPQALVQCHNFFATHPQIRAEAAYDTAGSAKMVAESRDKSALAIASKRAGELYGLDILKENLADEEWNITRFFCIAHENNPDISHLKVRPDVARQKTSIVFALPNEQGSLFRALATFALRGIDLTKIESRPSRKKAFEYLFYADFIGHREDQNVHNALENLREFATMVKVLGSYGVVNP" and give its measured soluble on expression in E. coli.
Given back: soluble
